system: Aromatase (Homo sapiens)
Sequence (P11511 whole entry): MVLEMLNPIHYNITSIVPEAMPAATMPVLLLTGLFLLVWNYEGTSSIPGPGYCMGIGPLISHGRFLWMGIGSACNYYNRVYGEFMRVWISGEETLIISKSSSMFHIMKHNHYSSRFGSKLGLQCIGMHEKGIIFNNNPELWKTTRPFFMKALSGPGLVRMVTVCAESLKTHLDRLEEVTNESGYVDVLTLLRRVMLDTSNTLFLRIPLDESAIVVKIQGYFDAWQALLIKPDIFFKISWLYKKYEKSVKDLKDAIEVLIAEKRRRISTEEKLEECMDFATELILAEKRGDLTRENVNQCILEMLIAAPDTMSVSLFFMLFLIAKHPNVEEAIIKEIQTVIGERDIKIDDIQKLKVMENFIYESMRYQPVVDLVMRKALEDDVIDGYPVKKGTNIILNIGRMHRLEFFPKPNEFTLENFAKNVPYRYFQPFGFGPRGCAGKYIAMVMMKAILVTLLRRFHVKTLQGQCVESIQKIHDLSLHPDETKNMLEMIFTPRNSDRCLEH
assay.explanation: Inhibition of human recombinant aromatase expressed in baculovirus-infected cell system using 7-methoxy-trifluoromethylcoumarin as substrate after 30 mins by fluorescence assay
test.conditions: read-out: IC50
Category scheme (IC50): low = under 20 µM, mid = from 20 µM up to 40 µM, high = 40 µM and over

Recorded results for 5 molecules are shown here.
>>> df
                                   molecule  classification
0  O=C1c2cc(F)ccc2OCC1c1cccnc1 (centres undefined)             low
1  O=C1c2ccccc2OCC1c1ccccc1F (centres undefined)             mid
2  O=C1c2ccccc2OCC1c1cccc(F)c1 (centres undefined)             mid
3  O=C1c2ccccc2OCC1c1ccc(F)cc1 (centres undefined)             mid
4  O=C1c2c(ccc3ccccc23)OCC1c1ccc(Oc2ccccc2)cc1 (centres undefined)            high

Task: Tag the class for O=C1c2cccc(F)c2OCC1c1ccccc1 (centres undefined)
Result: low

Task: What about O=C1c2cccc(F)c2OCC1c1cccnc1 (centres undefined) ?
Result: high

Task: Same again, this time with COc1ccc2c(c1)C(=O)C(c1cccnc1)CO2 (centres undefined)
Result: low
